- ASSAY: Microdialysis (striatal dialysate and blood) in cynomolgus monkeys
- Assay type: in vivo, cynomolgus monkey
- DETAILS: cynomolgus monkey, in vivo, po, 100 mg/kg, dialysate; fosmetpantotenate 100 mg/kg PO; read-out: Cmax
PARAMETER: Cmax (nM)

# COMPOUND, PARAMETER, UNITS OF MEASURE, RECORDED NUMBER
records = [
    ("COC(=O)CCNC(=O)[C@H](O)C(C)(C)COP(=O)(N[C@@H](C)C(=O)OC)Oc1ccccc1 (mixture of isomers) [Fosmetpantotenate]", "Cmax", "nM", 221),
]

----------
- ASSAY: Pharmacokinetics in whole blood, CD-1 mice
- DETAILS: male, CD-1, mouse, in vivo, 100 mg/kg, Conc., blood; fosmetpantotenate 100 mg/kg PO; 0.083 hr; individual animals

# MOLECULE, UNITS OF MEASURE, concentration at 0.083 h
measured = [
    ("COC(=O)CCNC(=O)[C@H](O)C(C)(C)COP(=O)(N[C@@H](C)C(=O)OC)Oc1ccccc1 (mixture of isomers) [Fosmetpantotenate]", "nM", 2),
]

----------
- ASSAY: Pharmacokinetics in whole blood, CD-1 mice
- DETAILS: male, CD-1, mouse, in vivo, po, 300 mg/kg, Compound 1 Whole Blood Conc., CD-1 mice, 300 mg/kg RE-024-02 by PO, 1 hr, individual animals, LLOQ 0.6 ng/mL
PARAMETER: concentration at 1 h (ng/mL)

# COMPOUND, RECORDED NUMBER
rows = [
    ("COC(=O)CCNC(=O)[C@@H]1OP(=O)(N[C@@H](C)C(=O)OC)OCC1(C)C (stereo partly shown)", 0.8),
]

----------
- ASSAY: Pharmacokinetics in whole blood, Sprague-Dawley rats
- DETAILS: Sprague-Dawley, rat, whole blood, po, 100 mg/kg, Whole Blood Conc. of compound 2, Sprague-Dawley rats, single 100 mg/kg RE-024-02 PO, time 4, LLOQ 10.2 nM

# COMPOUND, concentration at 4 h / nM
rows = [
    ("COC(=O)CCNC(=O)[C@@H]1OP(=O)(O)OCC1(C)C [Compound 2]", 18.9),
]

----------
- ASSAY: Pharmacokinetics in whole blood, CD-1 mice
- DETAILS: CD1 mouse; 100 mg/kg PO; metabolite AUCall/Parent AUCall x 100
Below is a list of entries, each paired with its recorded % Parent AUCAll value.
PARAMETER: % Parent AUCAll

# COMPOUND, PARAMETER, RESULT
data = [
    ("COC(=O)CCNC(=O)[C@@H]1OP(=O)(N[C@@H](C)C(=O)OC)OCC1(C)C (stereo partly shown) [Compound 1]", "% Parent AUCAll", "129%"),
    ("COC(=O)[C@H](C)NP(=O)(OCC(C)(C)[C@@H](O)C(=O)NCCC(=O)O)Oc1ccccc1 (stereo partly shown) [Compound 4]", "% Parent AUCAll", "3,180%"),
    ("CC1(C)COP(=O)(O)O[C@H]1C(=O)NCCC(=O)O [Compound 3]", "% Parent AUCAll", "8,900%"),
    ("COC(=O)CCNC(=O)[C@@H]1OP(=O)(O)OCC1(C)C [Compound 2]", "% Parent AUCAll", "8,550%"),
]
